Data provenance is patent US20230220057A1.

system: T1, human NGF-Fc protein (human, UniProt P01138 122-241, limits assumed)
T1 construct: not shown: human IgG1 Fc or IgG4 Fc
T1 sequence (P01138 122-241 limits assumed): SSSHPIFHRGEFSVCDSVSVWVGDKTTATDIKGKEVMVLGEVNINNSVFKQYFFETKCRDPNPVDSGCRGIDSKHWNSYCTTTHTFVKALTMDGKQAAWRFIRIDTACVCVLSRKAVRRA
test-summary: BLI (Octet Red), human NGF-Fc captured on anti-human Fc sensors, Fab in solution
# pKd listing for each entry below
The read-out pKd is expressed as -log10 of concentration in moles per litre.

Previously resolved entries follow.
- binder: "Ab6 Fab (Fab, V domains shown) VH: EVQLVQSGAEVKKPGATVKISCKVSGYTFITYWISWVQQAPGKGLEWMGAIDPSDSDARYSPSFQGRVTITADTSTDTAYMELSSLRSEDTAVYYCAKSDPGYSGYSLLYGFDSWGQGTLVTVSS VL: DVVMTQSPLSLPVTLGQPASISCRSSQSLVQRNGNTYLSWFQQRPGQPPRLLIYQVSNRYSGVPDRFSGSGSGTDFTLKISRVEAEDVGVYYCGQGAHLPLTFGQGTKVEIK"
  pKd: 9.06
- binder: "Ab36 Fab (Fab, V domains shown) VH: EVQLVQSGAEVKKPGATVKISCKVSGYTFITYWISWVQQAPGKGLEWMGAIDPSDSDARYSPSFQGRVTITADKSTDTAYMELSSLRSEDTAVYYCAKSDPGYSGYSLLYGFDSWGQGTLVTVSS VL: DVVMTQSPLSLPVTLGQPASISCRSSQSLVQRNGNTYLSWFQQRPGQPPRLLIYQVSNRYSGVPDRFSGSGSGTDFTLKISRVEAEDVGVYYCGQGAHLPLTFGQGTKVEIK"
  pKd: 9.59

From here, focus on the item given below.
Prompt: Quick one: pKd of Ab61 Fab (Fab, V domains shown) VH: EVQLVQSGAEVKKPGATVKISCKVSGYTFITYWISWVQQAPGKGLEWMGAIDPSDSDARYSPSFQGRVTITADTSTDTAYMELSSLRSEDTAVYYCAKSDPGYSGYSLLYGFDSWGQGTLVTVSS VL: DVVMTQSPLSLPVTLGQPASISCRSSQSLVQRNANTYLSWYQQRPGQSPRLLIYQVSNRYSGVPDRFSGSGSGTDFTLKISRVEAEDVGVYYCGQGAHLPLTFGQGTKVEIK ?
Response: 9.86
